- System: LPS-stimulated RAW264.7 cells
- assay.method.text: NO release inhibition in LPS-stimulated RAW264.7 cells (Griess reagent)
- Format: cell-based
- test.parameters: Mus musculus; LPS-stimulated RAW264.7 cells; Griess Reagent
pIC50: −log10 of the molar value.
readout: pIC50

molecule: CCc1ccc(-c2cnc(N)c(C(=O)Nc3ccccc3NC(C)=O)c2)cc1 [Compound 15]
modifier: =
measurement: 5.96
--
molecule: COc1ccc(-c2cnc(N)c(C(=O)Nc3ccc(NC(C)=O)cc3)c2)c(OC)c1OC [Compound 34]
modifier: <
measurement: 4.30
--
molecule: CC(=O)Nc1ccc(NC(=O)c2cc(-c3cccc(C#N)c3)cnc2N)cc1 [Compound 47]
modifier: =
measurement: 4.54
--
molecule: CCc1ccc(-c2cnc(N)c(C(=O)Nc3ccc(C(C)C)cc3)c2)cc1 [Compound 21]
modifier: <
measurement: 4.30
--
molecule: CCc1ccc(-c2cnc(N)c(C(=O)Nc3ccc(N)cc3)c2)cc1 [Compound 10]
modifier: =
measurement: 5.64
--
molecule: CC(=O)Nc1ccc(NC(=O)c2cc(-c3ccc(F)c(C)c3)cnc2N)cc1 [Compound 50]
modifier: =
measurement: 5.07
--
molecule: CC(=O)Nc1ccc(NC(=O)c2cc(-c3ccccc3O)cnc2N)cc1 [Compound 45]
modifier: <
measurement: 4.30
--
molecule: CC(=O)Nc1ccc(NC(=O)c2cc(-c3ccc(N)cc3Cl)cnc2N)cc1 [Compound 51]
modifier: =
measurement: 5.51
--
molecule: CCc1ccc(-c2cnc(N)c(C(=O)Nc3cccc(C)c3)c2)cc1 [Compound 8]
modifier: =
measurement: 4.82
